System: Plasmodium falciparum NF54 stage V gametocytes
test method notes: viability index relative to DMSO control (fraction); higher = less gametocyte killing
applied conditions: 2.5 µM, library set: Broad Institute DOS, incubation time: 72 h
Whole data set: some 9,900 compounds, median “viability index relative to DMSO control” near 1, cut for the lowest 2% near 0.85. Shown is part of a subset that was picked to be rich in the lowest values.
Entries annotated with measured viability index

CN(C)C(=O)c1cccc(-c2ccc3c(c2)[C@H]2[C@H](CCN2C(=O)c2cnccn2)[C@H](CO)N3)c1	1.1
COc1ccccc1CN1CC[C@@H]2[C@H]1c1cc(C3=CCCCC3)ccc1N[C@@H]2CO	0.813
COc1ccccc1C#Cc1ccc([C@H]2[C@H]3CN(C(=O)C4CCC4)CCCCN3[C@H]2CO)cc1	0.971

Report value: viability index, system: Plasmodium falciparum NF54 stage V gametocytes, compound: "C[C@@H]1CN([C@@H](C)CO)C(=O)c2cc(NC(=O)C3CC3)ccc2O[C@H]1CN(C)S(=O)(=O)c1ccccc1"
0.982

Report value: viability index, system: Plasmodium falciparum NF54 stage V gametocytes, compound: "CN(C)C(=O)c1cccc(-c2ccc3c(c2)[C@@H]2[C@@H](CCN2Cc2nccs2)[C@@H](CO)N3)c1"
0.785

Report value: viability index, system: Plasmodium falciparum NF54 stage V gametocytes, compound: "CN(C)C(=O)c1cccc(-c2ccc3c(c2)[C@@H]2[C@@H](CCN2C(=O)c2cnccn2)[C@H](CO)N3)c1"
1.17

Report value: viability index, system: Plasmodium falciparum NF54 stage V gametocytes, compound: "OC[C@@H]1[C@@H](c2ccc(C#Cc3ccccc3F)cc2)[C@H]2CN(CC3CCOCC3)CCCCN12"
0.852

Report value: viability index, system: Plasmodium falciparum NF54 stage V gametocytes, compound: "COc1ccccc1C#Cc1ccc([C@@H]2[C@H](CO)N3CCCCN(C(=O)C4CCC4)C[C@@H]23)cc1"
0.967

* * *

Test system: Plasmodium falciparum NF54 stage V gametocytes
test method notes: viability index relative to DMSO control (fraction); higher = less gametocyte killing
applied conditions: 2.5 µM, library set: Broad Institute DOS, incubation time: 72 h
The full ranking holds about 9,900 compounds; the median of “viability index relative to DMSO control” is about 1, and the lowest 2% start at about 0.85. The sample as a whole holds a higher share of the lowest values than the screen did.
quantity kind: viability index
Reply briefly: the number, and no unit.

Return viability index (reported value) for this molecule: "C/C=C/c1ccc([C@H]2[C@H]3CNC[C@@H]2N3C(=O)Nc2ccc3c(c2)OCO3)cc1"
1.05

Return viability index (reported value) for this molecule: "C[C@@H]1CN([C@@H](C)CO)C(=O)c2cc(NC(=O)Nc3ccccc3)ccc2O[C@H]1CN(C)Cc1ccccc1"
0.979

Return viability index (reported value) for this molecule: "N#C[C@@H]1N[C@H](CO)[C@H]1c1ccc(-c2cccc(F)c2)cc1"
1.18

Return viability index (reported value) for this molecule: "O=C1CCC(=O)N[C@@H](c2ccccc2)C/C=C\CCN1"
1.01

Return viability index (reported value) for this molecule: "COc1ccc(NC(=O)N2CCCCN3[C@@H](CO)[C@@H](c4ccc(-c5ccccc5F)cc4)[C@@H]3C2)cc1"
0.993

* * *

Entries annotated with measured viability index
Test system: Plasmodium falciparum NF54 stage V gametocytes
test method notes: viability index relative to DMSO control (fraction); higher = less gametocyte killing
applied conditions: 2.5 µM, library set: Broad Institute DOS, incubation time: 72 h
Whole data set: some 9,900 compounds, median “viability index relative to DMSO control” near 1, cut for the lowest 2% near 0.85. This excerpt belongs to a sample that is enriched for the lowest values.
Reply briefly: the number, and no unit.

Example entries begin here.
Cc1cccc(S(=O)(=O)N2C[C@H]3[C@@H](c4ccccc42)[C@H](CO)N3Cc2ccc3c(c2)OCO3)c1	1.01
C[C@@H]1CCCn2cc(nn2)COCCNC1=O	0.994
O=C(c1ccc2c(c1)OCO2)N1C[C@@H]2N[C@H](C1)[C@@H]2c1ccc(/C=C/c2ccccc2)cc1	0.731
O=C(c1ccc2c(c1)OCO2)N1C[C@@H]2N[C@H](C1)[C@H]2c1ccc(/C=C/c2ccccc2)cc1	1.05

We next turn to a different molecule, shown below.
Return viability index (reported value) for this molecule: "C[C@@H]1CN([C@@H](C)CO)C(=O)Cc2cc(NC(=O)CCC(F)(F)F)ccc2O[C@@H]1CN(C)CC1CC1"
1.04

* * *

Entries annotated with measured viability index
System: Plasmodium falciparum NF54 stage V gametocytes
test method notes: viability index relative to DMSO control (fraction); higher = less gametocyte killing
applied conditions: 2.5 µM, library set: Broad Institute DOS, incubation time: 72 h
The full ranking holds about 9,900 compounds; the median of “viability index relative to DMSO control” is about 1, and the lowest 2% start at about 0.85. The full list was thinned out, with the lowest values kept by preference.

Return viability index (reported value) for this compound: "N#C[C@H]1[C@H](c2ccc(C#Cc3ccccc3F)cc2)[C@@H](CO)N1C(=O)c1cccnc1"
1.02

* * *

Entries annotated with measured viability index
Tested on: Plasmodium falciparum NF54 stage V gametocytes
test method notes: viability index relative to DMSO control (fraction); higher = less gametocyte killing
applied conditions: 2.5 µM, library set: Broad Institute DOS, incubation time: 72 h
The full ranking holds about 9,900 compounds; the median of “viability index relative to DMSO control” is about 1, and the lowest 2% start at about 0.85. What follows is part of a selection rich in the lowest values, with near analogues and random picks from the rest.
Reply briefly: the number, and no unit.

Example entries begin here.
COc1ccc2c3c([nH]c2c1)[C@@H](CO)N(C[C@]31CCN(C)CC1)S(=O)(=O)c1ccccc1	1.04
CN(C)CC(=O)N1[C@H](C#N)[C@H](c2ccccc2-c2ccccc2F)[C@@H]1CO	1.1
CC(C)(C)S(=O)N1Cc2cc(C(=O)NCc3ccc4c(c3)OCO4)nc(-c3cccc(-c4cccc(F)c4)c3)c2[C@@H]1CCO (some centres undefined)	1.04

We next turn to a different compound, shown below.
Return viability index (reported value) for this compound: "N#C[C@@H]1[C@@H](c2ccccc2-c2ccccc2)[C@H](CO)N1C(=O)Cc1ccncc1"
1.1

* * *

Test system: Plasmodium falciparum NF54 stage V gametocytes
test method notes: viability index relative to DMSO control (fraction); higher = less gametocyte killing
applied conditions: 2.5 µM, library set: Broad Institute DOS, incubation time: 72 h
Whole data set: some 9,900 compounds, median “viability index relative to DMSO control” near 1, cut for the lowest 2% near 0.85. Many of the other results were omitted from the sample, so the lowest values are more common in it than they were.
Label 1 (yes) when viability index is strictly below 1; at or above that, label 0 (no).

COc1ccccc1C#Cc1ccc([C@@H]2[C@@H](CO)N(C(=O)C3CCC3)[C@H]2C#N)cc1	0 (no)

Hello, is viability index of the following compound strictly smaller than 1? "COc1ccccc1C#Cc1ccc([C@H]2[C@@H](C#N)N(C(=O)C3CCC3)[C@@H]2CO)cc1"
0 (no)

Hello, is viability index of the following compound strictly smaller than 1? "CCc1nc(N2[C@H](CO)[C@H](c3ccccc3-c3ccc(F)cc3)[C@@H]2C#N)sc1C"
0 (no)

Hello, is viability index of the following compound strictly smaller than 1? "COc1ccccc1C#Cc1ccc([C@@H]2[C@@H](C#N)N(C(=O)C3CCC3)[C@@H]2CO)cc1"
0 (no)

Hello, is viability index of the following compound strictly smaller than 1? "COc1cccc(C#Cc2ccc([C@@H]3[C@@H](C#N)N(C(=O)c4ccccn4)[C@H]3CO)cc2)c1"
0 (no)

Hello, is viability index of the following compound strictly smaller than 1? "COc1cccc(C#Cc2ccc([C@H]3[C@@H](CO)N(C(=O)c4ccccn4)[C@H]3C#N)cc2)c1"
1 (yes)

* * *

Entries annotated with measured viability index
Tested on: Plasmodium falciparum NF54 stage V gametocytes
test method notes: viability index relative to DMSO control (fraction); higher = less gametocyte killing
applied conditions: 2.5 µM, library set: Broad Institute DOS, incubation time: 72 h
Whole data set: some 9,900 compounds, median “viability index relative to DMSO control” near 1, cut for the lowest 2% near 0.85. This is one part of a sample in which the lowest values are shown more often than they occur.
Reply briefly: the number, and no unit.

Example entries begin here.
C/C=C/c1ccc2n(c1=O)C[C@@H]1N[C@H]2[C@H](C(=O)NC2CCCC2)[C@H]1CO.C/C=C\c1ccc2n(c1=O)C[C@@H]1N[C@H]2[C@H](C(=O)NC2CCCC2)[C@H]1CO	1.04
O=C(C[C@@H]1CC[C@H]2NC[C@@H](O)COC[C@@H]2O1)Nc1ccc(-c2ccccc2)cc1	0.826
C[C@H](CO)N1C[C@H](C)[C@H](CN(C)C(=O)Nc2ccccc2C(F)(F)F)OCc2cnnn2CCCC1=O	1.03

Return viability index (reported value) for this compound: "COc1cccc(C#Cc2ccc3c(c2)O[C@@H](CN(C)C(=O)CN2CCOCC2)[C@@H](C)CN([C@H](C)CO)S3(=O)=O)c1"
0.966

Return viability index (reported value) for this compound: "O=C([C@@H]1[C@@H](CO)[C@@H]2Cn3c(ccc(C4=CCCC4)c3=O)[C@H]1N2C(=O)c1cccnc1)N1CCOCC1"
1.08

Return viability index (reported value) for this compound: "C[C@@H]1CCCCO[C@@H](CN(C)C(=O)CCC(F)(F)F)[C@H](C)CN([C@@H](C)CO)C(=O)c2cc(NC(=O)C3CCCCC3)ccc2O1"
1.13
